procedure-summary: amyloid nucleation score (Sup35N fusion, yeast selection) (log enrichment); library NNK3; higher = more nucleation; inactive = no reads after selection;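 also: zero at mode of non-aggregating sequences after 7 days selection at 30°C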
test-readout: amyloid nucleation score

Examples with their reported amyloid nucleation score follow.
# substance, amyloid nucleation score
data = [
    ("TPLGLEWYSSREWGISNLWT", "inactive"),
    ("FNYRFSLSHKNGFTRVNYGL", "inactive"),
    ("KDTRIQLVNNFICGDSLE", "inactive"),
    ("LGRLVG", "inactive"),
    ("YTFNVNITPFTMYHSFIYFS", 3.08),
]

Given the substance `KDIYYTSFILPDEWITG` , what is its reported amyloid nucleation score?
inactive

Continue with `IRGKYRLVVRDSLNVTPYRV`
inactive

Continue with `LNYVCCCIQSPPEFNIS`
3.36

Continue with `GFMLWTHKKLARPEATAV`
inactive

Continue with `TGYYWFLFWNMWDWHVCGSS`
inactive

Continue with `GVTQVIWVAYNILFLNNCWM`
inactive

Continue with `GGKVSERRYVDLCRLPSVAP`
inactive
